Tested on: Saccharomyces cerevisiae;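 note: PSI is a weighted mean of sequencing reads over stability bins, variants kept only with over 10 reads, mCherry proximal and sfGFP distal, peptide attached via GGGS linker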
Assay: protein stability index of tFT-peptide fusion (C-terminal peptide) (PSI (0-1 scale)); higher = more stable (slower turnover)
Settings: genetic background: das1 deletion; temperature: 30 C
Label TRUE when protein stability index is at or above 0.4; otherwise label FALSE.

Ask: Assess whether reported protein stability index for `CTAWWVKGVAVK` sits at 0.4 or higher.
Result: TRUE

Ask: Given the entry `ALNFFSLFMLFR` , answer whether its protein stability index meets or surpasses 0.4.
Result: FALSE

Ask: Has `VECPWFCLGVLA` a recorded protein stability index greater than or equal to 0.4?
Result: FALSE

Ask: protein stability index >= 0.4 for `SPTQIPLWILAS` ?
Result: FALSE

Ask: Quick check, protein stability index >= 0.4? `GRGGLRVVVWLV`
Result: TRUE

Ask: API: above_or_equal(metric=protein stability index, cutoff=0.4) for item `SRRCGLFVFILF`
Result: FALSE

Ask: Evaluate `VLVVWLGICFGY` : protein stability index at minimum 0.4?
Result: FALSE

Ask: Could you verify whether the entry `VGVIGWGGLGVG` shows protein stability index of no less than 0.4?
Result: TRUE

Ask: Hi team, for `LVSLCYAYPRYC` , is the recorded protein stability index at or above 0.4?
Result: TRUE

Ask: Could you tell me if the measured protein stability index of `RVTYWKAVLVRL` reaches 0.4 or more?
Result: TRUE

Ask: I'd appreciate it if you could say whether `VGGGCVVVVRWG` has protein stability index at least equal to 0.4.
Result: TRUE

Ask: Is it the case that `WRGALHPTPVAA` has protein stability index reaching or exceeding 0.4?
Result: FALSE

Ask: Is reported protein stability index greater than or equal to 0.4 here: `LWNFYELVVYAM`
Result: FALSE

Ask: Hi, just wondering whether `CRAAMYSFFLNF` shows protein stability index of 0.4 or higher.
Result: TRUE

Ask: API: above_or_equal(metric=protein stability index, cutoff=0.4) for item `NYVFALFYMVVA`
Result: FALSE

Ask: Threshold query (protein stability index >= 0.4) on `FQFTLWRTLLCS`
Result: FALSE

Ask: Does protein stability index meet or surpass 0.4 for `FHFLFLFSLVSV` ?
Result: FALSE

Ask: Reported protein stability index at or above 0.4? `QCSVRLKEIQFS`
Result: TRUE

Numbers sourced from the supplement of paper PMC10724198.
